test system: red corpuscles; test: Toxicity on red corpuscles (lysis), human; format: cell-based; conditions: 37° C., 1 hour 30, 90 min, 90 min, read-out: LD 50 (dose which leads to lysis in 50% of the erythrocytes)
Reported HC50 by item:

Compound | HC50 [µM]
CC(=O)NC[C@H]1OC(O)(CN[C@@H]2[C@H](O)[C@H](O[C@H]3/C=C/C=C/C=C/C=C/C=C/C=C/C=C/[C@H](C)[C@@H](O)[C@@H](C)[C@H](C)OC(=O)C[C@H](O)C[C@H](O)CC[C@@H](O)[C@H](O)C[C@H](O)C[C@]4(O)C[C@H](O)[C@@H](C(=O)O)[C@H](C3)O4)O[C@H](C)[C@H]2O)[C@@H](O)[C@@H]1O (stereo partly drawn) [AmB 23 F] | 50
C[C@@H]1[C@H](O)[C@@H](C)/C=C/C=C/C=C/C=C/C=C/C=C/C=C/[C@H](O[C@@H]2O[C@H](C)[C@@H](O)[C@H](NCC3(O)O[C@H](C(N)=O)[C@@H](O)[C@@H]3O)[C@@H]2O)C[C@@H]2O[C@](O)(C[C@@H](O)C[C@@H](O)[C@H](O)CC[C@@H](O)C[C@@H](O)CC(=O)O[C@H]1C)C[C@H](O)[C@H]2C(=O)O (stereo partly drawn) [AmB 12 F] | 100
CC(=O)NC[C@H]1OC(O)(CN[C@@H]2[C@H](O)[C@H](O[C@H]3/C=C/C=C/C=C/C=C/C=C/C=C/C=C/[C@H](C)[C@@H](O)[C@@H](C)[C@H](C)OC(=O)C[C@H](O)C[C@H](O)CC[C@@H](O)[C@H](O)C[C@H](O)C[C@]4(O)C[C@H](O)[C@@H](C(=O)O)[C@H](C3)O4)O[C@H](C)[C@H]2O)[C@@H](O)[C@@H]1O (stereo partly drawn) [AmB 23 G] | 1

###

tested on: thymocytes; test: Toxicity on nucleated cells, mice thymocytes; type: cell-based; conditions: 1 hour 30, trypan blue, 90 min, read-out: LD 50 (concentration leading to a mortality of 50%)

Compound | CC50 (nM)
CC(=O)NC[C@H]1OC(O)(CN[C@@H]2[C@H](O)[C@H](O[C@H]3/C=C/C=C/C=C/C=C/C=C/C=C/C=C/[C@H](C)[C@@H](O)[C@@H](C)[C@H](C)OC(=O)C[C@H](O)C[C@H](O)CC[C@@H](O)[C@H](O)C[C@H](O)C[C@]4(O)C[C@H](O)[C@@H](C(=O)O)[C@H](C3)O4)O[C@H](C)[C@H]2O)[C@@H](O)[C@@H]1O (stereo partly shown) [AmB 23 G] | 2500

###

test system: PBL; test: Toxicity on nucleated cells, human PBL; format: cell-based; conditions: human PBL, 1 hour 30, trypan blue; 90 min; read-out: LD 50 (concentration leading to a mortality of 50%)
Lab note: compare CC50 with 30 µM, writing T if less and F if equal or more.

Compound | Category
CC(=O)NC[C@H]1OC(O)(CN[C@@H]2[C@H](O)[C@H](O[C@H]3/C=C/C=C/C=C/C=C/C=C/C=C/C=C/[C@H](C)[C@@H](O)[C@@H](C)[C@H](C)OC(=O)C[C@H](O)C[C@H](O)CC[C@@H](O)[C@H](O)C[C@H](O)C[C@]4(O)C[C@H](O)[C@@H](C(=O)O)[C@H](C3)O4)O[C@H](C)[C@H]2O)[C@@H](O)[C@@H]1O (stereo partly shown) [AmB 23 F] | F
C[C@@H]1[C@H](O)[C@@H](C)/C=C/C=C/C=C/C=C/C=C/C=C/C=C/[C@H](O[C@@H]2O[C@H](C)[C@@H](O)[C@H](NCC3(O)O[C@H](C(=O)O)[C@@H](O)[C@@H]3O)[C@@H]2O)C[C@@H]2O[C@](O)(C[C@@H](O)C[C@@H](O)[C@H](O)CC[C@@H](O)C[C@@H](O)CC(=O)O[C@H]1C)C[C@H](O)[C@H]2C(=O)O (stereo partly drawn) [AmB 17 G, 1-amino-1-deoxy-D-arabinoglucuronyl-AmB] | T
CC(=O)NC[C@H]1OC(O)(CN[C@@H]2[C@H](O)[C@H](O[C@H]3/C=C/C=C/C=C/C=C/C=C/C=C/C=C/[C@H](C)[C@@H](O)[C@@H](C)[C@H](C)OC(=O)C[C@H](O)C[C@H](O)CC[C@@H](O)[C@H](O)C[C@H](O)C[C@]4(O)C[C@H](O)[C@@H](C(=O)O)[C@H](C3)O4)O[C@H](C)[C@H]2O)[C@@H](O)[C@@H]1O (stereo partly shown) [AmB 23 G] | T
C[C@@H]1[C@H](O)[C@@H](C)/C=C/C=C/C=C/C=C/C=C/C=C/C=C/[C@H](O[C@@H]2O[C@H](C)[C@@H](O)[C@H](NCC3(O)O[C@H](C(N)=O)[C@@H](O)[C@@H]3O)[C@@H]2O)C[C@@H]2O[C@](O)(C[C@@H](O)C[C@@H](O)[C@H](O)CC[C@@H](O)C[C@@H](O)CC(=O)O[C@H]1C)C[C@H](O)[C@H]2C(=O)O (stereo partly shown) [AmB 12 G] | F
C[C@@H]1[C@H](O)[C@@H](C)/C=C/C=C/C=C/C=C/C=C/C=C/C=C/[C@H](O[C@@H]2O[C@H](C)[C@@H](O)[C@H](NCC3(O)O[C@H](C(N)=O)[C@@H](O)[C@@H]3O)[C@@H]2O)C[C@@H]2O[C@](O)(C[C@@H](O)C[C@@H](O)[C@H](O)CC[C@@H](O)C[C@@H](O)CC(=O)O[C@H]1C)C[C@H](O)[C@H]2C(=O)O (stereo partly shown) [AmB 12 F] | F
C[C@@H]1[C@H](O)[C@@H](C)/C=C/C=C/C=C/C=C/C=C/C=C/C=C/[C@H](O[C@@H]2O[C@H](C)[C@@H](O)[C@H](NCC(=O)[C@@H](O)[C@@H]3OC(c4ccccc4)OC[C@H]3O)[C@@H]2O)C[C@@H]2O[C@](O)(C[C@@H](O)C[C@@H](O)[C@H](O)CC[C@@H](O)C[C@@H](O)CC(=O)O[C@H]1C)C[C@H](O)[C@H]2C(=O)O (stereo partly shown) [AmB 20 F] | F
C[C@@H]1[C@H](O)[C@@H](C)/C=C/C=C/C=C/C=C/C=C/C=C/C=C/[C@H](O[C@@H]2O[C@H](C)[C@@H](O)[C@H](NCC3(O)O[C@H](C(=O)O)[C@@H](O)[C@@H]3O)[C@@H]2O)C[C@@H]2O[C@](O)(C[C@@H](O)C[C@@H](O)[C@H](O)CC[C@@H](O)C[C@@H](O)CC(=O)O[C@H]1C)C[C@H](O)[C@H]2C(=O)O (stereo partly drawn) [AmB 17 F, 1-amino-1-deoxy-D-arabinoglucuronyl-AmB] | F
CC1OC[C@@H](O)[C@H]([C@H](O)C(=O)CN[C@@H]2[C@H](O)[C@H](O[C@H]3/C=C/C=C/C=C/C=C/C=C/C=C/C=C/[C@H](C)[C@@H](O)[C@@H](C)[C@H](C)OC(=O)C[C@H](O)C[C@H](O)CC[C@@H](O)[C@H](O)C[C@H](O)C[C@]4(O)C[C@H](O)[C@@H](C(=O)O)[C@H](C3)O4)O[C@H](C)[C@H]2O)O1 (stereo partly shown) [AmB 22 F] | F

###

system: PBL; experiment: Toxicity on nucleated cells, human PBL; assay type: cell-based; conditions: human PBLs; AmB 12 derivative, comparison of different catalysts (Table 4); 90 min; listed as Oxalic acid NMG salt, 90 min; read-out: LD 50 (the source's name)

Compound | CC50
C[C@@H]1[C@H](O)[C@@H](C)/C=C/C=C/C=C/C=C/C=C/C=C/C=C/[C@H](O[C@@H]2O[C@H](C)[C@@H](O)[C@H](NCC3(O)O[C@H](C(N)=O)[C@@H](O)[C@@H]3O)[C@@H]2O)C[C@@H]2O[C@](O)(C[C@@H](O)C[C@@H](O)[C@H](O)CC[C@@H](O)C[C@@H](O)CC(=O)O[C@H]1C)C[C@H](O)[C@H]2C(=O)O (stereo partly shown) | > 1000 µM

###

# maps each entry to its CC50
system: thymocytes; assay: Toxicity on nucleated cells, mice thymocytes; type: cell-based; settings: 1 hour 30, trypan blue, 90 min, read-out: LD 50 (concentration leading to a mortality of 50%)

Compound | CC50
CC1OC[C@@H](O)[C@H]([C@H](O)C(=O)CN[C@@H]2[C@H](O)[C@H](O[C@H]3/C=C/C=C/C=C/C=C/C=C/C=C/C=C/[C@H](C)[C@@H](O)[C@@H](C)[C@H](C)OC(=O)C[C@H](O)C[C@H](O)CC[C@@H](O)[C@H](O)C[C@H](O)C[C@]4(O)C[C@H](O)[C@@H](C(=O)O)[C@H](C3)O4)O[C@H](C)[C@H]2O)O1 (stereo partly shown) | 5 µM
C[C@@H]1[C@H](O)[C@@H](C)/C=C/C=C/C=C/C=C/C=C/C=C/C=C/[C@H](O[C@@H]2O[C@H](C)[C@@H](O)[C@H](NCC3(O)O[C@H](C(=O)O)[C@@H](O)[C@@H]3O)[C@@H]2O)C[C@@H]2O[C@](O)(C[C@@H](O)C[C@@H](O)[C@H](O)CC[C@@H](O)C[C@@H](O)CC(=O)O[C@H]1C)C[C@H](O)[C@H]2C(=O)O (stereo partly shown) | 5 µM
C[C@@H]1[C@H](O)[C@@H](C)/C=C/C=C/C=C/C=C/C=C/C=C/C=C/[C@H](O[C@@H]2O[C@H](C)[C@@H](O)[C@H](NCC3(O)O[C@H](C(N)=O)[C@@H](O)[C@@H]3O)[C@@H]2O)C[C@@H]2O[C@](O)(C[C@@H](O)C[C@@H](O)[C@H](O)CC[C@@H](O)C[C@@H](O)CC(=O)O[C@H]1C)C[C@H](O)[C@H]2C(=O)O (stereo partly shown) | 5 µM
C[C@@H]1[C@H](O)[C@@H](C)/C=C/C=C/C=C/C=C/C=C/C=C/C=C/[C@H](O[C@@H]2O[C@H](C)[C@@H](O)[C@H](NCC(=O)[C@@H](O)[C@@H]3OC(c4ccccc4)OC[C@H]3O)[C@@H]2O)C[C@@H]2O[C@](O)(C[C@@H](O)C[C@@H](O)[C@H](O)CC[C@@H](O)C[C@@H](O)CC(=O)O[C@H]1C)C[C@H](O)[C@H]2C(=O)O (stereo partly shown) | 4 µM
